Kindly supply the reported pIC50 values for the records listed here.
- System: H441 cells
- MEASUREMENT DESCRIPTION: Cell viability, single and combination treatment with MEK/ERK inhibitors
- Format: cell-based
- CONDITIONS USED: Homo sapiens, NCI-H441; single treatment, 3 D incubation; heterozygous KRAS G12V
FYI, pIC50 means -log10 of a concentration in mol per litre.

Asked: Fill in the blank: the reported pIC50 of `CC(C)Nc1cc(-c2c[nH]c(C(=O)N[C@H](CO)c3cccc(Cl)c3)c2)c(Cl)cn1` is ____.
Given back: 4.77

Asked: Fill in the blank: the reported pIC50 of `CC(=O)Nc1cccc(-n2c(=O)n(C3CC3)c(=O)c3c(Nc4ccc(I)cc4F)n(C)c(=O)c(C)c32)c1` is ____.
Given back: 4.98

Cited source: patent US20260297128A1
